Every entry's value here was drawn from ChEMBL document CHEMBL1152224.

experiment-description: Clearance in dog at 0.5 mg/kg, iv
Type: ADME, organism-based, Canis lupus familiaris
Design: dose 0.5 mg/kg, route intravenous
protocol-conditions: in vivo
assay-readout: clearance

Task: Which measured clearance value corresponds to O=C(c1cccc2ccccc12)N(CCc1ccc(Cl)cc1)[C@H]1CC[C@H](O)CC1 ?
Result: 29 mL/min/kg

---

experiment-description: in vitro
protocol-conditions: human, liver microsomes
assay-readout: half-life (min)
Answers are plain numbers, in min.

Recorded half-life, per entry:
- compound: "O=C(c1cccc2ccccc12)N(CCc1ccc(Cl)cc1)[C@H]1CC[C@H](O)CC1"
  assay-readout: "half-life"
  obs-value: 20
- compound: "O=C(c1csc2ccccc12)N(CCc1ccc(Cl)cc1)[C@H]1CC[C@H](O)CC1"
  assay-readout: "half-life"
  obs-value: 14

Now for another entry.
Task: Which measured half-life value corresponds to O=C(Nc1ccc(F)cc1F)N1CCC(N(CCc2ccc(Cl)cc2)C(=O)c2csc3ccccc23)CC1 ?
Result: 11

---

experiment-description: Half life in dog at 0.5 mg/kg, iv
Assay type: ADME, organism-based, Canis lupus familiaris
Parameters: dose 0.5 mg/kg, route intravenous
protocol-conditions: in vivo
assay-readout: half-life (h)
Numbers only, in h.

Task: Which measured half-life value corresponds to O=C(c1cccc2ccccc12)N(CCc1ccc(Cl)cc1)[C@H]1CC[C@H](O)CC1 ?
Result: 1.4

---

experiment-description: Half life in rat at 0.5 mg/kg, iv and 10 mg/kg, po
Format: ADME, organism-based
protocol-conditions: in vivo
assay-readout: half-life (min)
Give bare numbers, in min.

Task: Which measured half-life value corresponds to O=C(c1csc2ccccc12)N(CCc1ccc(Cl)cc1)[C@H]1CC[C@H](O)CC1 ?
Result: 30

---

experiment-description: physchem
protocol-conditions: octanol/water, pH 7.4
For each entry below, report its logD value.
Numbers only.

- compound: "O=C(c1csc2ccccc12)N(CCc1ccc(Cl)cc1)C1CCN(CCc2ccc(F)cc2F)CC1"
  logD: 4.1

Now for another entry.
Task: Which measured logD value corresponds to O=C(c1csc2ccccc12)N(CCc1ccc(Cl)cc1)[C@H]1CC[C@H](O)CC1 ?
Result: 4.9

---

experiment-description: Lipophilicity, log P of the compound
Assay type: physicochemical
protocol-conditions: octanol/water
assay-readout: logP

Task: Which measured logP value corresponds to O=C(Nc1ccc(F)cc1F)N1CCC(N(CCc2ccc(Cl)cc2)C(=O)c2csc3ccccc23)CC1 ?
Result: > 5

---

experiment-description: Oral bioavailability in rat at 10 mg/kg, po
Assay type: ADME, organism-based
protocol-conditions: in vivo
assay-readout: bioavailability (%)
Numbers only, in %.

Task: Which measured bioavailability value corresponds to O=C(c1csc2ccccc12)N(CCc1ccc(Cl)cc1)[C@H]1CC[C@H](O)CC1 ?
Result: 0.5
